Target: T1, GST-MPP2 PDZ domain fusion protein (maguk p55 subfamily member 2 (DLG2) AA185-273; PDZ domain 1 of 1) (UniProt P08515 1-218 = GST)
T1 construct: also called MMP2
T1 sequence (P08515 1-218, tags or fused parts left off): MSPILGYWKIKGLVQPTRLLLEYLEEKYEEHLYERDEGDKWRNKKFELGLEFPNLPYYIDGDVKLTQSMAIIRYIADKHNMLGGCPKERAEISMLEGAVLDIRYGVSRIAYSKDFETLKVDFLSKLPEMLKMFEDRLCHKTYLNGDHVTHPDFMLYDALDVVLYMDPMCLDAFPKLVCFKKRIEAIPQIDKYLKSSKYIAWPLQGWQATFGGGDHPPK
Test: A/G assays
Ends that are not written are not given here. * marks the point of attachment. Biotin = O=C1N[C@H]2[C@H](CS[C@H]2CCCCC(=O)*)N1
parameter measured: binding result

binder: Biotin-SSKSKSSEESQTFFGLYKL [FasLigand C-terminal PL peptide AA23L-M, biotinylated]
parameter measured: binding result
reported result: no binding
--
binder: Biotin-LERVSSTSPSTGEHELSAGF [CC CKR-1R C-terminal PL peptide AA41L, biotinylated]
parameter measured: binding result
reported result: no binding
--
binder: Biotin-PYGTAMEKAQLKPPATSDA [CD49E (alpha-4) C-terminal PL peptide AA11L, biotinylated]
parameter measured: binding result
reported result: no binding
--
binder: Biotin-KKGTYLTDETHREVKFTSL [CD46 (form 1) C-terminal PL peptide AA10L, biotinylated]
parameter measured: binding result
reported result: no binding
